Target: FFA1-Nluc (Homo sapiens, UniProt O14842)
Sequence (O14842 whole entry): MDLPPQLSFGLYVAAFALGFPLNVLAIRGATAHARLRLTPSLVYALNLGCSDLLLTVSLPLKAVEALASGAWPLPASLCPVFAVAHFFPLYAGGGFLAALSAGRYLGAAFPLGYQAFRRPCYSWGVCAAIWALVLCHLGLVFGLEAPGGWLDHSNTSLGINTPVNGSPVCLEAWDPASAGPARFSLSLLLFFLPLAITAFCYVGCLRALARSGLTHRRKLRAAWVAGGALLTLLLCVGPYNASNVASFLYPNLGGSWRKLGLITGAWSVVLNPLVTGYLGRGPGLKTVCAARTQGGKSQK
Test: NanoBRET binding (saturation, kinetics) at C terminal Nluc tagged FFA1
Set-up: expressed in transfected cells
Settings: no pre-treatment; read-out: Kd Nano-BRET Single Concentration (kinetic)
MEASURED_ENDPOINT: pKd
Keep it numeric: pKd is minus log10 of the concentration in mol/L.

Ask: Given the compound COc1ccc(C(=O)N(CC(C)(C)CNc2ccc([N+](=O)[O-])c3nonc23)c2cccc(C)n2)c(N2CCC(COc3cccc(C(CC(=O)O)C4CC4)c3)CC2)c1.O=C(O)C(F)(F)F (stereo not shown) , what is its reported pKd?
Result: 6.57

---

Target: FFA1-Nluc (Homo sapiens)
Test: DISCo-BRET (endpoint, spectra scan, kinetics) with TUG-2591 and TUG-2597 at C terminal Nluc tagged FFA1
Format: binding
Set-up: expressed in transfected cells
Conditions: 100 nM TUG-2591 and […] TUG-2597; NC = No competition
Items are presented alongside their recorded pIC50 DISCo-BRET NBD/Nluc.
Please give the numeric answer without any surrounding text.

{"columns": ["COMPOUND", "MEASURED_ENDPOINT", "TEST_RESULT"],
 "data": [
  ["CCCN1C(=O)c2ccccc2[C@@H](C(=O)O)[C@@H]1c1ccc(OCc2cccc(C(F)(F)F)c2)cc1", "pIC50 DISCo-BRET NBD/Nluc", 6.1],
  ["COc1ccc(CCCC(C)(C)C)c(N2CCC(COc3cccc(C(CC(=O)O)C4CC4)c3)CC2)c1.O=C(O)C(F)(F)F (stereo not shown)", "pIC50 DISCo-BRET NBD/Nluc", 7.1]
]}

Here is another compound to look at.
Ask: Consider the compound shown here: COc1ccc(C(=O)N(CC(C)(C)C)c2cccc(C)n2)c(N2CCC(COc3cccc(C(CC(=O)O)C4CC4)c3)CC2)c1.O=C(O)C(F)(F)F (stereo not shown) [Cpd 6h, reference compound] What is its recorded pIC50 DISCo-BRET NBD/Nluc?
Result: 7.3

---

Target: FFA1-Nluc (Homo sapiens, UniProt O14842)
Assay: DISCo-BRET (endpoint, spectra scan, kinetics) with TUG-2591 and TUG-2597 at C terminal Nluc tagged FFA1
Format: binding
Parameters: expressed in transfected cells
Conditions: percentage of binding obtained in the absence of competing ligand; 100 nM TUG-2591 and […] TUG-2597
Mark TRUE for 'bottom' of the IC50 curve, DISCo-BRET SulfoCy5/NBD under 20%, FALSE if at or over.

Use the examples below as a reference point.
{"columns": ["COMPOUND", "GROUP"],
 "data": [
  ["COc1ccc(C(=O)N(CC(C)(C)C)c2cccc(C)n2)c(N2CCC(COc3cccc(C(CC(=O)O)C4CC4)c3)CC2)c1.O=C(O)C(F)(F)F (stereo not drawn) [Cpd 6h, reference compound]", "TRUE"],
  ["CCCN1C(=O)c2ccccc2[C@@H](C(=O)O)[C@@H]1c1ccc(OCc2cccc(-c3ccc(OCCCS(C)(=O)=O)cc3C)c2)cc1 (racemic)", "TRUE"],
  ["CCCN1C(=O)c2ccccc2[C@@H](C(=O)O)[C@@H]1c1ccc(OCc2cccc(-c3ccc(OCCOCCNC(=O)OC(C)(C)C)cc3C)c2)cc1 (racemic)", "FALSE"]
]}

Ask: Record CCCN1C(=O)c2ccccc2[C@@H](C(=O)O)[C@@H]1c1ccc(OCc2cccc(C(F)(F)F)c2)cc1 : is its 'bottom' of the IC50 curve, DISCo-BRET SulfoCy5/NBD strictly below 20%?
Result: TRUE

Ask: Does the reported 'bottom' of the IC50 curve, DISCo-BRET SulfoCy5/NBD of the following compound sit strictly below 20%? Cc1cc(OCCCS(C)(=O)=O)cc(C)c1-c1cccc(COc2ccc3c(c2)OC[C@H]3CC(=O)O)c1
Result: TRUE

Ask: Report whether reported 'bottom' of the IC50 curve, DISCo-BRET SulfoCy5/NBD is lower than 20% (strictly) for COc1ccc(CCCC(C)(C)C)c(N2CCC(COc3cccc(C(CC(=O)O)C4CC4)c3)CC2)c1.O=C(O)C(F)(F)F (stereo not drawn)
Result: FALSE

---

Target: FFA1-Nluc (Homo sapiens, UniProt O14842)
Assay: NanoBRET binding (saturation, kinetics) at C terminal Nluc tagged FFA1
Design: expressed in transfected cells
Settings: FFA1-Nluc; 95% confidence interval in parentheses; read-out: Kd, saturation BRET binding
MEASURED_ENDPOINT: Kd (nM)
All answers are understood in nM, so give the number only.

Some entries whose results are on file:
{"columns": ["COMPOUND", "TEST_RESULT"],
 "data": [
  ["Cc1cc(OCCOCCNC(=O)CCCCCN2\\C(=C/C=C/C=C/C3=[N+](C)c4ccc(S(=O)(=O)[O-])cc4C3(C)C)C(C)(C)c3ccccc32)ccc1-c1cccc(COc2ccc(CCC(=O)O)c(F)c2)c1", 240],
  ["COc1ccc(C(=O)N(CC(C)(C)CNc2ccc([N+](=O)[O-])c3nonc23)c2cccc(C)n2)c(N2CCC(COc3cccc(C(CC(=O)O)C4CC4)c3)CC2)c1.O=C(O)C(F)(F)F (stereo not shown)", 380],
  ["Cc1cc(OCCOCCNC(=O)CCCCC[N+]2=C(/C=C/C=C3/N(C)c4ccc5ccccc5c4C3(C)C)C(C)(C)c3c2ccc2ccccc32)ccc1-c1cccc(COc2ccc(CCC(=O)O)c(F)c2)c1.O=C([O-])C(F)(F)F", 25]
]}

We next turn to a different compound, shown below.
Ask: Looking for the measured Kd of Cc1cc(OCCCNC(=O)CCCN2\C(=C/C=C/C=C/C3=[N+](C)c4ccc(S(=O)(=O)[O-])cc4C3(C)C)C(C)(C)c3ccccc32)ccc1-c1cccc(COc2ccc(CCC(=O)O)c(F)c2)c1 , can you help?
Result: 23

---

Molecular target: FFA1-Nluc (Homo sapiens)
Test: DISCo-BRET (endpoint, spectra scan, kinetics) with TUG-2591 and TUG-2597 at C terminal Nluc tagged FFA1
Assay type: binding
Set-up: expressed in transfected cells
Conditions: FFA1-Nluc, […] TUG-2597; read-out: Kd, DISCo-BRET saturation SulfoCy5/NBD (Sup Fig 3Ciii)
MEASURED_ENDPOINT: Kd (nM)
Just the number please, in nM, no unit attached.

Ask: What is its Kd for FFA1-Nluc (Homo sapiens)? Entry: Cc1cc(OCCCNC(=O)CCCN2\C(=C/C=C/C=C/C3=[N+](C)c4ccc(S(=O)(=O)[O-])cc4C3(C)C)C(C)(C)c3ccccc32)ccc1-c1cccc(COc2ccc(CCC(=O)O)c(F)c2)c1 [TUG-2591]
Result: 140

---

Target: FFA1-Nluc (Homo sapiens, UniProt O14842)
Experiment: DISCo-BRET (endpoint, spectra scan, kinetics) with TUG-2591 and TUG-2597 at C terminal Nluc tagged FFA1
Type: binding
Set-up: expressed in transfected cells
Conditions: in presence of […] TUG-2597; either construct; read-out: Kd, DISCo-BRET saturation (area under SulfoCy5 / NBD peaks)
MEASURED_ENDPOINT: Kd

Ask: What value of Kd has been recorded for this entry: Cc1cc(OCCCNC(=O)CCCN2\C(=C/C=C/C=C/C3=[N+](C)c4ccc(S(=O)(=O)[O-])cc4C3(C)C)C(C)(C)c3ccccc32)ccc1-c1cccc(COc2ccc(CCC(=O)O)c(F)c2)c1 [TUG-2591]
Result: 50 to 100 nM

---

Biological target: UniProt O14842
Test: DISCo-BRET (endpoint, spectra scan, kinetics) with TUG-2591 and TUG-2597 at C terminal Nluc tagged FFA1
Format: binding
Design: expressed in transfected cells
Conditions: FFA1-Nluc, […] TUG-2597; read-out: Kd, DISCo-BRET saturation SulfoCy5/Nluc (Sup Fig 3Ci)
MEASURED_ENDPOINT: Kd (µM)
The answer is to be given in µM; state only the numeric part.

Ask: Please give the measured Kd for this compound: Cc1cc(OCCCNC(=O)CCCN2\C(=C/C=C/C=C/C3=[N+](C)c4ccc(S(=O)(=O)[O-])cc4C3(C)C)C(C)(C)c3ccccc32)ccc1-c1cccc(COc2ccc(CCC(=O)O)c(F)c2)c1
Result: 0.081

---

Molecular target: Nluc-FFA1 (Homo sapiens, UniProt O14842)
Construct: expressed in transfected cells
Sequence (O14842 whole entry): as above
Experiment: NanoBRET binding (saturation, competition, kinetics) at N terminal Nluc tagged FFA1
Settings: Nluc-FFA1; 95% confidence interval in parentheses; read-out: Kd, saturation BRET binding
MEASURED_ENDPOINT: pKd
Hey, just a heads up that pKd is the negative log base 10 of the concentration in molar.

Known pKd results, listed for orientation:
{"columns": ["COMPOUND", "MEASURED_ENDPOINT", "TEST_RESULT"],
 "data": [
  ["COc1ccc(C(=O)N(CC(C)(C)CNc2ccc([N+](=O)[O-])c3nonc23)c2cccc(C)n2)c(N2CCC(COc3cccc(C(CC(=O)O)C4CC4)c3)CC2)c1.O=C(O)C(F)(F)F (stereo not shown) [TUG-2597]", "pKd", 6.41],
  ["Cc1cc(OCCOCCNC(=O)CCCCC[N+]2=C(/C=C/C=C3/N(C)c4ccc5ccccc5c4C3(C)C)C(C)(C)c3c2ccc2ccccc32)ccc1-c1cccc(COc2ccc(CCC(=O)O)c(F)c2)c1.O=C([O-])C(F)(F)F [TUG-2287]", "pKd", 6.70],
  ["Cc1cc(OCCOCCNC(=O)CCCCCN2\\C(=C/C=C/C=C/C3=[N+](C)c4ccc(S(=O)(=O)[O-])cc4C3(C)C)C(C)(C)c3ccccc32)ccc1-c1cccc(COc2ccc(CCC(=O)O)c(F)c2)c1 [TUG-2355]", "pKd", 6.28]
]}

Ask: Any idea what its pKd is? The compound is Cc1cc(OCCCNC(=O)CCCN2\C(=C/C=C/C=C/C3=[N+](C)c4ccc(S(=O)(=O)[O-])cc4C3(C)C)C(C)(C)c3ccccc32)ccc1-c1cccc(COc2ccc(CCC(=O)O)c(F)c2)c1 [TUG-2591]
Result: 6.68
